Numbers sourced from paper PMC8619593.

Molecular target: Human recombinant cathepsin B (exopeptidase activity) (Homo sapiens, UniProt P07858)
Construct: The Preparation of Catalytically Active Human Cathepsin B from Its Precursor Expressed in Escherichia coli; made in house; host or cells: Escherichia coli
Assay: Cathepsin B exopeptidase inhibition assay
Assay type: biochemical
Conditions: read-out: Exopeptidase Cathepsin B IC50
Measured Property: pIC50
Give bare numbers, as −log10 of the molar value.

Req: Quick one: pIC50 for `CC1=C(/C=C/C(C)=C/C=C/C(C)=C/C=C/C=C(C)/C=C/C=C(\C)C(=O)O)C(C)(C)CCC1` ?
Resp: 4.67
